Where these numbers come from: PubChem BioAssay AID493245

System: 3C-like protease (Infectious bronchitis virus)
Test: blockers of SARS 3CLpro activity – biochemical, fluorescence, set 3, late-stage follow-up (AID 493245)
Conditions: recombinant 3CLpro, fluorogenic substrate cleavage; at 100 µM
Activity calls are given as the source filed them. No rule for the calls is given here.
Possible outcomes: 1 for active, -1 for inactive

>  <COMPOUND>
CC(C)(C)NC(=O)C(c1cccnc1)N(C(=O)c1ccco1)C1CC2CCC1C2 (stereo unspecified)

>  <CAT>
-1

$$$$
>  <COMPOUND>
CC(C)(C)NC(=O)C(c1cccnc1)N(C(=O)c1ccco1)C12CC3CC(CC(C3)C1)C2 (stereo unspecified)

>  <CAT>
-1

$$$$
>  <COMPOUND>
CC(C)C(=O)Nc1ccc(N(C(=O)Cn2nnc3ccccc32)C(C(=O)NCc2ccccc2)c2cccc(F)c2)cc1 (stereo unspecified)

>  <CAT>
1

$$$$
>  <COMPOUND>
O=C(Nc1ccc(N(C(=O)Cn2nnc3ccccc32)C(C(=O)NCc2ccccc2)c2cccc(F)c2)cc1)C1CCC1 (stereo unspecified)

>  <CAT>
1

$$$$
>  <COMPOUND>
CC(C)(C)NC(=O)C(c1cccnc1)N(C(=O)c1ccco1)C1CCCCC1 (stereo unspecified)

>  <CAT>
-1

$$$$
>  <COMPOUND>
O=C(Nc1ccc(N(C(=O)Cn2nnc3ccccc32)C(C(=O)NCc2ccccc2)c2cccc(F)c2)cc1)C1CC1 (stereo unspecified)

>  <CAT>
1

$$$$
